System: DeltatarO mutant
protocol-description: S. aureus survival, RN4220 and DeltatarO strains – OD600, teichoic acid synthesis inhibitors, primary screen (AID 463173)
experimental-parameters: S. aureus RN4220 wild type/DeltatarO growth, OD600, 18 h, active compounds read low, screened at 18.75 µg/mL (by protocol)
About 4,300 (8.3%) of roughly 52,000 compounds were called active. The entries come from a sample that favours actives as a whole.
Kindly apply the following: Y if survival is less than 70%, N in every other case.

compound: CCCCNC(=O)c1cnc2sc(N3CCCCCC3)nn2c1=O
target-system: DeltatarO mutant
assigned-class: N

compound: Cc1c(C(=O)N(Cc2cccc(F)c2)C2CCS(=O)(=O)C2)oc2cc(Br)ccc12 (stereo not given)
target-system: DeltatarO mutant
assigned-class: Y

compound: Cc1c(C(=O)N(Cc2ccccc2F)C2CCS(=O)(=O)C2)oc2ccccc12 (stereo not given)
target-system: DeltatarO mutant
assigned-class: N

compound: COc1cc(CN(C(=O)c2oc3ccccc3c2C)C2CCS(=O)(=O)C2)cc(OC)c1OC (stereo not given)
target-system: DeltatarO mutant
assigned-class: Y
